Measured values drawn from patent US20250051391A1 for this set.

target: T1, Charged multivesicular body protein 2B (CHMP2B), full length, purified (human, UniProt Q9UQN3 2-213); assay: fluorescence polarization, FITC-labelled a-syn peptide, CHMP2B titrated
T1 construct: mature; not shown: tag from the pET-DEST42 vector used for Ni-NTA purification
T1 sequence (Q9UQN3 2-213): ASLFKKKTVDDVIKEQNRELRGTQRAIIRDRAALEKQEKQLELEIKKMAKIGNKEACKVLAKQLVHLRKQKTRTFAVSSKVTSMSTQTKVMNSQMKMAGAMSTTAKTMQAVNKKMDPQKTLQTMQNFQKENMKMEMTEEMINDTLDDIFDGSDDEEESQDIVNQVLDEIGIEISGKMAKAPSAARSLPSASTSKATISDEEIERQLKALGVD
Ends that are not written are not given here. * marks the point of attachment. FITC = O=C1OC2(c3ccc(O)cc3Oc3cc(O)ccc32)c2ccc(NC(=S)*)cc21
property-measured: Kd (nM)
Numbers only, in nM.

Need Kd of {FITC}-NEEGAPQEGILE [FITC-labelled a-syn peptide, amino acids 103-114 (NEEGAPQEGILE)] , thanks. 640
